# System: SNB-75 CNS
# measurement-protocol: NCI tumour cell line growth inhibition, 48 h
measured-endpoint: TGI

Qu. GET /values?readout=TGI&item= N#Cc1ccccc1C#C/C=C\C#Cc1cnccn1
Ans. > 100 µM

Qu. Also O=c1c2ccccc2nc(-c2ccccc2Cl)n1NC1OC(CO)C(O)C(O)C1O (stereo not given) ?
Ans. > 100 µM

Qu. Can you check N#C/C(=C/NC(=S)Nc1ccc(S(N)(=O)=O)cc1)C(N)=O next?
Ans. > 100 µM

Qu. Same lookup for O=S(O)CCCSSCCCCSSCCCS(=O)O , please.
Ans. > 100 µM

Qu. Then COC(=O)[C@@H](C)C[C@H](Cc1ccccc1)NC(=O)c1cccc([C@@H](C[C@H](C(C)C)N(C)C(=O)[C@@H](NC(=O)[C@H]2CCCCN2C)C(C)C)OC(C)=O)n1 ?
Ans. > 16.7 µM

Qu. Repeat for the following compound: CC(=S)NC1C(Oc2ccc3c(C)cc(=O)oc3c2)OC(CO)C(O)C1O (stereo not given)
Ans. > 100 µM

Qu. What do we get for CCCCCC1C2C(=O)NC(=O)C1C(=O)NC2=O (stereo not given) ?
Ans. > 100 µM

Qu. Repeat with COC[C@H](Cc1ccccc1)N=Cc1ccccc1
Ans. > 100 µM

Qu. Also check CCc1cccc(C(C)C)c1C1C(=O)C(=O)N(c2nc3ccccc3s2)C(=O)C1=O
Ans. > 100 µM

Qu. Would you kindly repeat that for COc1ccc2c(c1)CCC1C2CCC2(C)C1CC[C@@]2(O)CNC(=O)/C=C/c1ccc(O)c(O)c1 (stereo not given in full) ?
Ans. 7.18 µM

====

# Test system: HCC-2998 colon
# measurement-protocol: NCI tumour cell line growth inhibition, 48 h
measured-endpoint: GI50

Qu. Need GI50, item COc1ccc(/C(C)=C(\c2ccc(Cl)cc2)c2ccc(OCCN3CCCCC3)cc2)cc1F
Ans. 3.21 µM

Qu. Same again, this time with Cc1ccc(S(=O)(=O)NC(CCCCN)C(=O)CCl)cc1 (stereo unspecified)
Ans. 37.4 µM

Qu. Please give the result for CN(C)CCCn1c2c(c3ccc([N+](=O)[O-])cc3c1=O)C(=O)c1ccccc1-2 too.
Ans. 15.3 µM

Qu. // query: Cn1cc(C2=C(c3cn(CCCSC(=N)N)c4ccccc34)C(=O)NC2=O)c2ccccc21
Ans. 3.05 µM

Qu. Another compound to look at: COc1cc2c(c(OC)c1OC)-c1c(c3ccc([N+](=O)[O-])cc3c(=O)n1CCCN=[N+]=[N-])C2=O
Ans. > 100 µM

Qu. Okay, and O=C1/C(=C/c2ccc([N+](=O)[O-])s2)Oc2ccc(Cl)cc21 ?
Ans. 0.515 µM

====

# Tested on: SNB-75 CNS
# measurement-protocol: NCI tumour cell line growth inhibition, 48 h
Returns one of fulfilled or not fulfilled; fulfilled when TGI is >= 10 µM.

Qu. Answer whether TGI of Cc1cccc(NC(=O)c2sc3nc4c(cc3c2N)CCC4)c1C is greater than or equal to 10 µM.
Ans. not fulfilled

Qu. Also need C=CCn1c(=O)c(-c2ccccc2)c(O)c2ccccc21 , thanks.
Ans. fulfilled

Qu. Moving on to the next compound: C[C@H]1C(=O)C2=C[C@H]1CCC(=O)[C@]1(C)CCCC(C)(C)[C@H]1C[C@H]2O
Ans. fulfilled

Qu. And then Cc1cc2c(C#N)n3c(c2cc1C)C(=O)C(c1ccccc1)Oc1ccccc1-3 (stereo unspecified) , what is it?
Ans. not fulfilled

Qu. Then this compound: CC1CCCC2(O1)OC1CC(=O)OC1C1=C2C(=O)c2ccccc2C1=O (stereo unspecified)
Ans. fulfilled

Qu. Also, COc1ccc(N2CCN(CC(=O)N3CCN(c4nnc(-c5ccc(Cl)cc5)c(-c5ccc(Cl)cc5)n4)CC3)CC2)cc1 please.
Ans. fulfilled

Qu. Consider next the compound N#CC1=C(N)Oc2c(ccc3ccccc23)C1c1ccccc1Cl (stereo unspecified) in the same way.
Ans. not fulfilled

Qu. And for Nc1cc(N)c2nc(-c3ccccc3)c(Sc3ccc(F)cc3)nc2c1 ?
Ans. fulfilled

Qu. Another: COc1ccc2[nH]c3c(C)c4ccnc(NCCCN(C)CCCNC(=O)NCCCN(C)CCCNc5nccc6c(C)c7[nH]c8ccc(OC)cc8c7c(C)c56)c4c(C)c3c2c1
Ans. not fulfilled

Qu. And then COc1ccc(/C(C)=C(\c2ccc(Cl)cc2)c2ccc(OCCN3CCCCC3)cc2)cc1F , what is it?
Ans. fulfilled

Qu. Entry to check: O=C(/C=C/CN1CCCCC1)Nc1cc2c(Nc3ccc(F)c(Cl)c3F)ncnc2cc1OCCOC(F)F
Ans. not fulfilled

Qu. Cool, now CN1CCN(c2nc3c(c(=O)n(C)c(=O)n3C)n2C)CC1
Ans. fulfilled

Qu. Please do the same for CC(=O)OC12CCCCC1C1(CCCC1)NC2=O (stereo unspecified) as well.
Ans. fulfilled

Qu. // repeat for O=C(C(=O)n1ccc2ccccc21)c1c[nH]c2ccccc12 and report
Ans. fulfilled

Qu. Follow-up entry: CC(C)(C)C(=O)C(C#N)C(=O)C(C)(C)C
Ans. fulfilled

Qu. COc1ccc(/C=N/NC(=O)c2ccccc2Nc2ccccc2C(=O)N/N=C/c2ccc(OC)c(OC)c2)cc1OC ?
Ans. fulfilled

Qu. Now give it for O=C1/C(=C/c2ccc([N+](=O)[O-])s2)Oc2ccc(Cl)cc21 too.
Ans. not fulfilled

Qu. Follow-up entry: COc1ccc(C2Oc3cc(OC)c(O)cc3[C@@H]2C)cc1 (stereo partly specified)
Ans. fulfilled

Qu. One more compound: CN(C)CCCNc1ccc2nnn3c4ccc([N+](=O)[O-])cc4c(=O)c1c23
Ans. not fulfilled

Qu. Same lookup for CCOc1c(OC)cc(CNNc2nccs2)cc1OC , please.
Ans. fulfilled

Qu. # iterate: COc1cc(OC)c(-c2oc3ccccc3c(=O)c2O)c(OC)c1
Ans. fulfilled

====

Assign TGI to each entry below.
# Tested on: MALME-3M melanoma
# measurement-protocol: NCI tumour cell line growth inhibition, 48 h
The reply should contain only the number, in µM.

Qu. State its TGI on MALME-3M melanoma: CN1CCN(Cc2ccc(NC(=O)c3cncc(C#Cc4c(N)ncc5ccc(F)cc45)c3)cc2C(F)(F)F)CC1
Ans. 0.743

Qu. For CCS(=O)(=O)Nc1ccc(Oc2ccc(F)cc2F)c(-c2cn(C)c(=O)c3[nH]ccc23)c1 then?
Ans. 12.9

Qu. Then this compound: COc1ccc(C2CC(c3cccc(Nc4ccnc5cc(Cl)ccc45)c3)=NN2c2ccc(Cl)cc2)cc1 (stereo not given)
Ans. 59.5

====

Could you please report measured log10(TGI) for the items listed next?
# Tested on: NCI-H522 lung
# measurement-protocol: NCI tumour cell line growth inhibition, 48 h
// do not treat as linear: log10 of TGI, unit µM

Qu. What does the data say about its log10(TGI)? Entry: CCCCCCc1cc2cc(C(=O)Nc3cccc(C(F)(F)F)c3)c(=N)oc2cc1O
Ans. 0.43

Qu. What about COCN1C(=O)[C@@H]2C[C@@H](OC/C=C/CBr)CN2C(=O)c2ccccc21 ?
Ans. 1.41

Qu. Consider next the molecule COC(=O)C(I(OS(=O)(=O)c1ccc(C)cc1)c1ccccc1)=P(c1ccccc1)(c1ccccc1)c1ccccc1 in the same way.
Ans. 1.44

Qu. What would you report for CCOC(=O)C(Cc1ccc(N(CCCl)CCCl)cc1)NC(=O)C(CC(C)C)NC(C)=O (stereo not given) ?
Ans. 0.42

Qu. Please answer likewise for C#Cc1cccc(NC(=O)Nc2cccc(NC(=O)CCl)c2)c1
Ans. 1.69

Qu. Cool, now COc1ccc2c(c1)CCC1C2CCC2(C)C1CC[C@@]2(O)CNC(=O)/C=C/c1ccc(O)c(O)c1 (stereo not given in full)
Ans. 0.34

Qu. Consider next the molecule O=c1[nH]/c(=C/c2ccc(OCc3ccccc3)cn2)c(=O)[nH]/c1=C/c1cccnc1 in the same way.
Ans. -0.23

Qu. // repeat for C[As](C)SCC(COC(=O)c1ccccc1)OC(=O)c1ccccc1 (stereo not given) and report
Ans. 0.47

Qu. Again, but for Nc1n[nH]c(=O)c2c1c(Br)cn2C1OC(CO)C(O)C1O (stereo not given)
Ans. 1.40

Qu. # iterate: CN(C)c1ccc(/C=C/C(=O)c2ccc(Nc3nc(Nc4ccc(F)cc4)nc(Nc4ccc(Cl)cc4)n3)cc2)cc1
Ans. 1.38

Qu. Also Cc1nc2cc(NC(=O)CN3CCN(CCN4C(=O)c5cccc6cccc(c56)C4=O)CC3)ccc2s1 ?
Ans. 1.14

Qu. Continue with COc1c(-c2ccc3c(c2)OCO3)oc2cc3c(c(OC)c2c1=O)OCO3
Ans. 1.72

Qu. Can you handle CCN(CC)CCC(CNc1c2ccc(Cl)cc2nc2ccc(OC)cc12)c1ccccc1 (stereo not given) next?
Ans. 0.32

Qu. Can you handle COc1ccc(C2Oc3cc(OC)c(O)cc3[C@@H]2C)cc1 (stereo not given in full) next?
Ans. 1.58

Qu. Param item: COC(=O)[C@@H](C)C[C@H](Cc1ccccc1)NC(=O)c1cccc([C@@H](C[C@H](C(C)C)N(C)C(=O)[C@@H](NC(=O)[C@H]2CCCCN2C)C(C)C)OC(C)=O)n1
Ans. -2.58

Qu. Same thing, different molecule: CCOc1ccccc1Nc1nc(C)c(C(=O)CC(=O)C(=O)Nc2ccccc2)s1
Ans. 1.93

Qu. Same lookup for Cn1c([N+](=O)[O-])cnc1/C=C1\Oc2ccc(Cl)cc2C1=O , please.
Ans. 0.34

Qu. What do we get for COc1ccc(C2CC(c3cccc(Nc4ccnc5cc(Cl)ccc45)c3)=NN2c2ccc(Cl)cc2)cc1 (stereo not given) ?
Ans. 1.37

Qu. Please give the result for C=CC(C)(C)c1cc([C@@H]2COc3cc(O)ccc3C2=O)c(O)c(OC)c1OC too.
Ans. 1.32

Qu. Would you kindly repeat that for C/C=C\C(C)=C/C(C)C(=O)CC(O)CC1CC(=O)NC(=O)C1 (stereo not given) ?
Ans. 1.13

Qu. Also check CCOC(=O)c1ccccc1NC(c1ccccc1)c1ccc2cccnc2c1O (stereo not given)
Ans. 1.06

Qu. Continue with CN(C)/C=C/c1ccnc2c1C(=O)c1ccccc1C2=O
Ans. 1.38

Qu. Now give it for O=C(O)CCCCCNC(=O)CCC(CN(CC(=O)OCc1ccccc1)CC(=O)OCc1ccccc1)N(CC(=O)OCc1ccccc1)CC(=O)OCc1ccccc1 (stereo not given) too.
Ans. 1.62

Qu. What would you report for CC1CCCC2(O1)OC1CC(=O)OC1C1=C2C(=O)c2ccccc2C1=O (stereo not given) ?
Ans. 0.56

Qu. Also need Cc1ccc(SCN2CCCCC2)cc1 (tested in a mixture with another compound) , thanks.
Ans. 0.95
